Each recorded value in this set is attributed to ChEMBL document CHEMBL1201862.

Provide the recorded IC50 for the entries that follow.
Molecular target: Sentrin-specific protease 7 (Homo sapiens, UniProt Q9BQF6);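 further: Luminescence-based dose-response confirmation of ultra-high-throughput screening hits, measuring inhibition of SENP7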
Sequence (Q9BQF6 whole entry): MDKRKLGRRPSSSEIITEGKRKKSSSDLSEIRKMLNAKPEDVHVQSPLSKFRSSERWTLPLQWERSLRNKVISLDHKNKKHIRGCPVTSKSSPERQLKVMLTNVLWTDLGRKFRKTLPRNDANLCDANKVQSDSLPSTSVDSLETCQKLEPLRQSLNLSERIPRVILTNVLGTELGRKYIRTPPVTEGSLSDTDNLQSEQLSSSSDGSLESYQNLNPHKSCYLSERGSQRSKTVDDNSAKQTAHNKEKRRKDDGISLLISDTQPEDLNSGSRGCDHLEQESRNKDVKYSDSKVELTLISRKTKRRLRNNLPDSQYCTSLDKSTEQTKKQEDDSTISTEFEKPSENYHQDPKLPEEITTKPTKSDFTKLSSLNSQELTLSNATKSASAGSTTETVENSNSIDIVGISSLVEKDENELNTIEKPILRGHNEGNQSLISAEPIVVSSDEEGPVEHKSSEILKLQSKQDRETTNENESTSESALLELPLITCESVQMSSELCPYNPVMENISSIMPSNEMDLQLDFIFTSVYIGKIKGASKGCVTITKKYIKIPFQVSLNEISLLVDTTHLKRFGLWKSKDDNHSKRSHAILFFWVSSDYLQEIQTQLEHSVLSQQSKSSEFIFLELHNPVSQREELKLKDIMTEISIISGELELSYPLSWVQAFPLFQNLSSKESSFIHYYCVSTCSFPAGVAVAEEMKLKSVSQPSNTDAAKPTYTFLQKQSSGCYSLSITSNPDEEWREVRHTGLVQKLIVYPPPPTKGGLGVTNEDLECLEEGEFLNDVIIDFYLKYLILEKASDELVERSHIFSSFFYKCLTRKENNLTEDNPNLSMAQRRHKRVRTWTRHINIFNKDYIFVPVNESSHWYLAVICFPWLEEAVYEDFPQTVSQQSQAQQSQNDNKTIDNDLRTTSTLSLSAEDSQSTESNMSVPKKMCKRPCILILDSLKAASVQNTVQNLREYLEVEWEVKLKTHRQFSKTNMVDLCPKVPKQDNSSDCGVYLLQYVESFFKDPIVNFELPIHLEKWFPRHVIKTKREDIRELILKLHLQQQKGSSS
Type: functional
The source made the active and inactive calls.

line-notation | tested-on | IC50
O=[N+]([O-])c1ccc(N/N=C/c2ccccc2O)cc1 | Sentrin-specific protease 7 (Homo sapiens, UniProt Q9BQF6) | 4.9 µM (active)
COc1ccc(/C=C2\CCc3ccccc3C2=O)cc1OC | Sentrin-specific protease 7 (Homo sapiens, UniProt Q9BQF6) | 7.94 µM (active)
O=C(Nc1nc2c(s1)CCCC2)c1ccc(Br)s1 | Sentrin-specific protease 7 (Homo sapiens, UniProt Q9BQF6) | 4.82 µM (active)
COc1ccc(S(=O)(=O)N2CCOCC2)cc1NC(=O)COC(=O)c1ccc([N+](=O)[O-])s1 | Sentrin-specific protease 7 (Homo sapiens, UniProt Q9BQF6) | 9.28 µM (active)
O=Nc1ccc(NOC(=O)c2ccccc2)cc1 | Sentrin-specific protease 7 (Homo sapiens, UniProt Q9BQF6) | 8.98 µM (active)

// moving on: another record for IC50
Problem: Return reported IC50. Input compound: `COc1cccc(/N=C/c2c(O)oc3ccccc3c2=O)c1`
Result: 14.2 µM (active)

----------
molecular target: Fatty acid synthase (Homo sapiens); assay: inhibition of human FAS-TE enzyme activity – biochemical, kinetic fluorescence intensity, dose response (AID 624326); type: functional;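 further: rate of fluorescence rise from hydrolysis of a fluorogenic O-methyl fluorescein ester substrate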
Sequence (P49327 whole entry): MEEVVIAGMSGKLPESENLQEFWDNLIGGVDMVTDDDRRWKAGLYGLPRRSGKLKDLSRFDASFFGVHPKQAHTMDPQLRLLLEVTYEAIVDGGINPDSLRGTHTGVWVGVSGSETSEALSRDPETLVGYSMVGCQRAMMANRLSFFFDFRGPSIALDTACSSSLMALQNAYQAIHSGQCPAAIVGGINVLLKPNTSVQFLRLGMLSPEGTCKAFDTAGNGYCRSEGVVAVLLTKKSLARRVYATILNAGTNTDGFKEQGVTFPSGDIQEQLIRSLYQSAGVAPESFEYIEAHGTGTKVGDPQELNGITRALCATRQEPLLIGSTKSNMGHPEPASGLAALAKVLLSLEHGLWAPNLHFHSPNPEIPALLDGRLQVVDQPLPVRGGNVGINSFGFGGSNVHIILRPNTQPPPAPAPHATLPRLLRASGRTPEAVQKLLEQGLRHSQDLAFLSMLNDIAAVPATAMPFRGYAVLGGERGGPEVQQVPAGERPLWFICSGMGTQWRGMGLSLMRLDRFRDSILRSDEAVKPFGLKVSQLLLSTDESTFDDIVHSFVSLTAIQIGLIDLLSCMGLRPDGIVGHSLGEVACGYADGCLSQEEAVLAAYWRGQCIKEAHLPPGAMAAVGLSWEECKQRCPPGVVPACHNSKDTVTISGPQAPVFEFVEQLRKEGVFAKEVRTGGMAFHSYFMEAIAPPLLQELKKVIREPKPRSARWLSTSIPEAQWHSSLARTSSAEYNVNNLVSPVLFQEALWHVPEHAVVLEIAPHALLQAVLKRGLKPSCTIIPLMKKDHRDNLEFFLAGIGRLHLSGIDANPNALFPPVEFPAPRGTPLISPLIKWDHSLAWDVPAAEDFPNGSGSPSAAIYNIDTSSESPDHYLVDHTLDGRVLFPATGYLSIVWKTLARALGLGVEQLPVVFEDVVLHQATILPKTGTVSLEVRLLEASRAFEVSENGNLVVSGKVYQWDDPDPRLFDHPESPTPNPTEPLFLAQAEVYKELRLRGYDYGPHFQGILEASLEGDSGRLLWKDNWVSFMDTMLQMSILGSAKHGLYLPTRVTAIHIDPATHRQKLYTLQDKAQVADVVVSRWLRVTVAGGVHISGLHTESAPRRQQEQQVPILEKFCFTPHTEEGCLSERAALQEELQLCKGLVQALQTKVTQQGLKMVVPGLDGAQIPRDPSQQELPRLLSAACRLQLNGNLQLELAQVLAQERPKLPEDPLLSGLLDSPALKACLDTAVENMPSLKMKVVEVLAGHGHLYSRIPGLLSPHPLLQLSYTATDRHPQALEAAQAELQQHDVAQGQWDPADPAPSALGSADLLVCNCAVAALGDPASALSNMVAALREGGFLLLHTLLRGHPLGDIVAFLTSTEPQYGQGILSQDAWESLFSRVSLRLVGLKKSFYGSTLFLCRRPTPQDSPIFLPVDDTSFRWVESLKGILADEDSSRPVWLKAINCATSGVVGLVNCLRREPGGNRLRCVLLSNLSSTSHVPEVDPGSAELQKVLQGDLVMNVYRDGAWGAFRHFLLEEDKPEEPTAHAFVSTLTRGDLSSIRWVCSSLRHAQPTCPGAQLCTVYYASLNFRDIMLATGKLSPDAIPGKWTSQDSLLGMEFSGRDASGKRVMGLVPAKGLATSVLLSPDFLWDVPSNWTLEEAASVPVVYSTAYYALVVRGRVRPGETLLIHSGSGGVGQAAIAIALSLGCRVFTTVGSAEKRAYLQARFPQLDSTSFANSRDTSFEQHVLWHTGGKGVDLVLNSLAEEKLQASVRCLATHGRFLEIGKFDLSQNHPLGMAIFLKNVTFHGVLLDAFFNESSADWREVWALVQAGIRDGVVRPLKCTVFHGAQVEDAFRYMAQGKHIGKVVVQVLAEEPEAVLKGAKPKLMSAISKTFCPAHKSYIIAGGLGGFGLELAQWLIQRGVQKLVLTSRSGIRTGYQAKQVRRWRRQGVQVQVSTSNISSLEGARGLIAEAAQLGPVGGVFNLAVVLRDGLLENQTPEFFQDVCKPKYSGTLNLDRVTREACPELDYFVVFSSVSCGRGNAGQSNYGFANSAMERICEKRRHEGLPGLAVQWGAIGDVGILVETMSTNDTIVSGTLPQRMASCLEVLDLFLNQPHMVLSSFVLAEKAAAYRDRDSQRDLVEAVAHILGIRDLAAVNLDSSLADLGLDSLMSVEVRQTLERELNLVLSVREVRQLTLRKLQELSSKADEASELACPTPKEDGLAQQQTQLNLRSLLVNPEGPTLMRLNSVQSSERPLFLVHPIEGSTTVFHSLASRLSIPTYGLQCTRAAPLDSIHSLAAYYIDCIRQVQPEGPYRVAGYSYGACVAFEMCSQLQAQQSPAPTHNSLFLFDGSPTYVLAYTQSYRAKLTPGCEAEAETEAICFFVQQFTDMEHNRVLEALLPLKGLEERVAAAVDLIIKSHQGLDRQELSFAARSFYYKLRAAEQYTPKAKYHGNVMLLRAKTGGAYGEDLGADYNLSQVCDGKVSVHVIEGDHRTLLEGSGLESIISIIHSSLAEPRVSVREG
Activity calls are given as the source filed them.
# output must be one of y = active, n = inactive

Record excerpt, results attached:
line-notation | discrete-label
O=C(C/C=N\OCc1ccc([N+](=O)[O-])cc1)Nc1ccc(Br)cc1 | y
O=C(NNS(=O)(=O)c1ccc([N+](=O)[O-])cc1)c1ccc([N+](=O)[O-])cc1 | y
CC(C=Cc1ccccc1)=NNS(=O)(=O)c1ccc([N+](=O)[O-])cc1 | y
Cc1ccc(C(=O)N/C(=C\c2cn(S(=O)(=O)N(C)C)c3ccccc23)C(=O)N2CCCC2)cc1 | y

Problem: I would be grateful if you could indicate the recorded call for `Cc1nc2scc(-c3ccccc3)c2c(=O)o1` .
Result: n

----------
target: Ubiquitin-conjugating enzyme E2 N (Homo sapiens); assay type: functional;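 further: Dose-response confirmation in a TR-FRET assay detecting UBC13-driven polyubiquitin chain formation, inhibition measured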
Sequence (P61088 whole entry): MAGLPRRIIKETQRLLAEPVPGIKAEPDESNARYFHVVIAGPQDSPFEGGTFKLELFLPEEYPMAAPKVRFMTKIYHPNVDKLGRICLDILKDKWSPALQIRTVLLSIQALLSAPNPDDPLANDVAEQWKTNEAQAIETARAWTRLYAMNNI
Calls of active or inactive are those of the source.
# output must be one of active, inactive

Record excerpt, results attached:
compound | discrete-label
O=C(COc1ccc(Cl)cc1)NNC(=O)c1ccccn1 | inactive
Sc1[nH]cnc2c3ccccc3nc1-2 | inactive
CC1(C)Cc2c(sc(NC(=O)C(=O)NCC3CCCO3)c2C(N)=O)CO1 (configuration not stated) | active
Cc1cccc2c1-c1sc(C(=O)NCCCN3CCCC(C)C3)cc1CO2 (configuration not stated) | inactive
O=C(Cn1cc(C(=O)c2cccs2)c2ccccc21)NC1CCCCC1 | inactive

Problem: I would be grateful if you could indicate the recorded call for CC(C)C[C@H]1CN=C(Nc2ccccc2)N1CC1CCC(C(C)(C)C)CC1 (some centres not stated) .
Result: inactive

Problem: I would be grateful if you could indicate the recorded call for `Cc1ccc(-c2nc3cc(C(=O)NCCCn4ccnc4)ccc3c(O)c2O)cc1` .
Result: inactive

----------
Biological target: Mannose-6-phosphate isomerase (Homo sapiens)
Sequence (P34949 whole entry): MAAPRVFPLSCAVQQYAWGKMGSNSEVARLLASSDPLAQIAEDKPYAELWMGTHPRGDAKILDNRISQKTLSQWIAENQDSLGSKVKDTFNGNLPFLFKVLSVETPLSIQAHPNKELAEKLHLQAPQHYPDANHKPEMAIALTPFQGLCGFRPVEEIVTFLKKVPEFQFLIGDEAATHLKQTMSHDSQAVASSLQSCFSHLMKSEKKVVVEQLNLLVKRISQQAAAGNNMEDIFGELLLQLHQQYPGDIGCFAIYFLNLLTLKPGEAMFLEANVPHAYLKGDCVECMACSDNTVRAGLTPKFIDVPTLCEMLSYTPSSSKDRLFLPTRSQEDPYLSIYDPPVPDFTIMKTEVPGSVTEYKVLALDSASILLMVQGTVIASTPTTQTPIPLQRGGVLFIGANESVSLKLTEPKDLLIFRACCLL
Test: MPI inhibition at elevated mannose 6-phosphate – biochemical, fluorescence intensity, high mannose 6-phosphate, primary screen (AID 1220)
Active and inactive are the calls of the source.
readout-type: IC50

compound | IC50
CCOC(=O)C1=C(C)NC(=O)NC1c1c(C)nn(-c2ccccc2)c1Cl (centres undefined) | 5.4 µM (active)
Cc1ccc2cc(N)ccc2n1 | > 50 µM (not active)

Return reported IC50 values for all items listed beneath this line.
1. CN(C)/C=C1\Oc2ccc3ccccc3c2C1=O
2. CN(CC(=O)Nc1ccc(N2CCOCC2)cc1)Cc1c(O)ccc2ccccc12

Result:
1: > 50 µM (not active); 2: > 50 µM (not active)

----------
test system: SN12K1; experiment: cells; format: functional; settings: Homo sapiens
Active and inactive are the calls of the source.
# output must be one of 1.0 (active), 0.0 (inactive)

Record excerpt, results attached:
compound | tested-on | discrete-label
CN(Cc1cnc2nc(N)nc(N)c2n1)c1ccc(C(=O)N[C@@H](CCC(=O)O)C(=O)O)cc1 [METHOTREXATE] | SN12K1 | 1.0
CO[C@@]12[C@H](COC(N)=O)C3=C(C(=O)C(C)=C(N)C3=O)N1C[C@H]1[C@@H]2N1C (stereo not given in full) | SN12K1 | 0.0
N#Cc1cn(C2OC(CO)C(O)C2O)c2ncnc(N)c12 (stereo not given) | SN12K1 | 1.0

Problem: I would be grateful if you could indicate the recorded call for C=C1CC(OC)(C(O)C(=O)N[C@H]2OCO[C@H]3C2O[C@H](C[C@@H](COC)OC)C(C)(C)C3OC)O[C@H](C)[C@@H]1C (stereo not given in full) .
Result: 1.0

Problem: I would be grateful if you could indicate the recorded call for `NC(=O)c1ncn2c1NC(=O)CC2` .
Result: 0.0

----------
Target: Sentrin-specific protease 6 (Homo sapiens, UniProt Q9GZR1);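 further: Luminescence-based dose-response confirmatory assay of SENP6 inhibition, following up an ultra-high-throughput screen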
Sequence (Q9GZR1 whole entry): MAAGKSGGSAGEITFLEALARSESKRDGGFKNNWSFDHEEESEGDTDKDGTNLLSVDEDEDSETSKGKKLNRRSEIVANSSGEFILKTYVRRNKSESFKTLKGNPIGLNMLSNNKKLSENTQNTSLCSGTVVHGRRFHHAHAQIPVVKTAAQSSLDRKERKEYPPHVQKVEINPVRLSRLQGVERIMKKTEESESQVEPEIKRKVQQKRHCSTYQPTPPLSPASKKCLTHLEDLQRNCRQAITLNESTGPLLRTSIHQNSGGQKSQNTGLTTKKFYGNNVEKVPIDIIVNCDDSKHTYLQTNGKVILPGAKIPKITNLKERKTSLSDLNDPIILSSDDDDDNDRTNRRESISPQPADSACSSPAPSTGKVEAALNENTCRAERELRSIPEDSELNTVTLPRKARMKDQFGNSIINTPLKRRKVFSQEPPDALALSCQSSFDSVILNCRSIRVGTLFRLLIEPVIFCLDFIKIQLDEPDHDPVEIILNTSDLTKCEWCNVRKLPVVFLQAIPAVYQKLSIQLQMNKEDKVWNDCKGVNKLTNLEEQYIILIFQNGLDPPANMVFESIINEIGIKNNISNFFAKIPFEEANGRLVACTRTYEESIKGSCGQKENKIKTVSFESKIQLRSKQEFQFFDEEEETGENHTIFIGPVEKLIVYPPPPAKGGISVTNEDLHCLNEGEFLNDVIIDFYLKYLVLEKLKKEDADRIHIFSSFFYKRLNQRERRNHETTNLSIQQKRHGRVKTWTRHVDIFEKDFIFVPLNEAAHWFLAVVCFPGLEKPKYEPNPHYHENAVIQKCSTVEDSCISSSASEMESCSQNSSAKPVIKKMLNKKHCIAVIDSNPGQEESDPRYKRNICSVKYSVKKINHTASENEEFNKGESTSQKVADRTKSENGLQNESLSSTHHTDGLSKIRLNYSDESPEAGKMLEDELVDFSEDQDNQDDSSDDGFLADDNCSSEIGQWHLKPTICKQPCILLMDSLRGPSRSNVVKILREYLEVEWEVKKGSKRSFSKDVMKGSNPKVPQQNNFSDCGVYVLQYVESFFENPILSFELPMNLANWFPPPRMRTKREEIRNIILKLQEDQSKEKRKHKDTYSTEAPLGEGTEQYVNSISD
Format: functional
The source made the active and inactive calls.
# output must be one of Y for active, N for inactive

line-notation | tested-on | discrete-label
O=[N+]([O-])c1ccc(N/N=C/c2ccccc2O)cc1 | Sentrin-specific protease 6 (Homo sapiens, UniProt Q9GZR1) | Y
COc1ccc(/C=C2\CCc3ccccc3C2=O)cc1OC | Sentrin-specific protease 6 (Homo sapiens, UniProt Q9GZR1) | Y
O=Nc1ccc(NOC(=O)c2ccccc2)cc1 | Sentrin-specific protease 6 (Homo sapiens, UniProt Q9GZR1) | Y
COc1cccc(/N=C/c2c(O)oc3ccccc3c2=O)c1 | Sentrin-specific protease 6 (Homo sapiens, UniProt Q9GZR1) | N
O=C(Nc1nc2c(s1)CCCC2)c1ccc(Br)s1 | Sentrin-specific protease 6 (Homo sapiens, UniProt Q9GZR1) | Y

Now for another entry.
Problem: I would be grateful if you could indicate the recorded call for `COc1ccc(S(=O)(=O)N2CCOCC2)cc1NC(=O)COC(=O)c1ccc([N+](=O)[O-])s1` .
Result: Y
